Tested on: HL60
TEST DETAILS: MTT reduction proliferation assay, HL60
Assay type: cell-based, human
ASSAY CONDITIONS: HL60 promyelocytic leukemia, 24 hours

STRUCTURE STRING	TESTED ON	IC50 [µM]
Nc1ncnc2c1ncn2[C@@H]1O[C@H](COP(=O)(O)OP(=O)(O)OC[C@H]2O[C@@H](n3cnc4ncnc-4c3N)[C@H](O)[C@@H]2O)[C@@H](O)[C@H]1O	HL60	26
Nc1ncn([C@@H]2O[C@H](COP(=O)(O)OP(=O)(O)OC[C@H]3O[C@@H](n4cnc5c(N)ncnc54)[C@H](O)[C@@H]3O)[C@@H](O)[C@H]2O)c2ncnc1-2	HL60	2
